What Granzyme B secretion, CD8 T cells, at 0 µM was measured for each of the following?
# target: T1, IL10Rα/IL2Rγ receptor (human) (UniProt Q13651)
# T1 sequence (looked up) 1: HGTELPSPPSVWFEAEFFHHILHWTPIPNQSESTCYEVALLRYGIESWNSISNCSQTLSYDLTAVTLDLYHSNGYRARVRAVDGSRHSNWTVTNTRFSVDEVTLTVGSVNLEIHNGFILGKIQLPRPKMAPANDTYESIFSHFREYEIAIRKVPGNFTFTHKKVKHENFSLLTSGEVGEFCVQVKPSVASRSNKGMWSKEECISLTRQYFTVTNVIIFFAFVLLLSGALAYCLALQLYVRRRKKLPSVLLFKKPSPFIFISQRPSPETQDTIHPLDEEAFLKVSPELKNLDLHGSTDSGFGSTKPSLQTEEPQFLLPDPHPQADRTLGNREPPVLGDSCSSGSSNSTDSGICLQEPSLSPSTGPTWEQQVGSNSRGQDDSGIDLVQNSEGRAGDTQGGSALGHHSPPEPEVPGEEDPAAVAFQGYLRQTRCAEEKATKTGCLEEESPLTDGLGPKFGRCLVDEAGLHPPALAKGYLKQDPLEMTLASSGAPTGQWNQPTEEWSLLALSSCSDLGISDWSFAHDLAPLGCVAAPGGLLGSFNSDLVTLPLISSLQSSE
# T1 sequence (looked up) 2: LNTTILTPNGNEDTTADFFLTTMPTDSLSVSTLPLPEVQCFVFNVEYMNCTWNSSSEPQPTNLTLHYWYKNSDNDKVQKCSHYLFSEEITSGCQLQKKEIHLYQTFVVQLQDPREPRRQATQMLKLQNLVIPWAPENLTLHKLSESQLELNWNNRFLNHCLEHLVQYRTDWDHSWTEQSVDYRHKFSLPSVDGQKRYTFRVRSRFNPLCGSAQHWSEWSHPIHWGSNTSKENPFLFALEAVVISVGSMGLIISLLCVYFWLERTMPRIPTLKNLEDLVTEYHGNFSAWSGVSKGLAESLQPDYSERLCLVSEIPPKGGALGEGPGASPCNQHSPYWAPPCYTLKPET
# experiment_summary: cell-based or functional assay
Numbers only, in pg/mL.

Worked cases, answers included:
binder	experimental_result
hIL10Ra_VHH14 - hIL2Rg_VHH19, linker GS, tag his (bispecific antibody, not shown: small tags and cut ends) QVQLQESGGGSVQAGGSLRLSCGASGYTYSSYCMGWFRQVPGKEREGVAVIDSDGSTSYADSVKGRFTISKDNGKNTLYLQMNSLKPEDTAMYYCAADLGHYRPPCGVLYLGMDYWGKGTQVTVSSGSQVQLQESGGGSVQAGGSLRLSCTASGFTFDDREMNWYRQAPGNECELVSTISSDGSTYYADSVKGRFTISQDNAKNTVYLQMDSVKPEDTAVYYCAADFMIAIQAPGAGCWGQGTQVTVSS	77700
hIL10Ra_VHH14 - hIL2Rg_VHH19, linker GGGS, tag Fc (bispecific antibody, not shown: a dimerising Fc or GST) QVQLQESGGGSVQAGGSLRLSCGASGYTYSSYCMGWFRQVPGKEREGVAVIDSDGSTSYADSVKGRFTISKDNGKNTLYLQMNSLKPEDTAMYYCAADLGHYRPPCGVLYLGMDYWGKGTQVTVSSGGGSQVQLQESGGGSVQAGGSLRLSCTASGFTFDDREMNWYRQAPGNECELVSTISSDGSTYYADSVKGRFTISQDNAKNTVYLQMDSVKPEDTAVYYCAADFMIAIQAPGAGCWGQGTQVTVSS	77700

Reported Granzyme B secretion, CD8 T cells, at 0 µM for hIL10Ra_VHH14 - hIL2Rg_VHH19, linker GGGS, tag his (bispecific antibody, not shown: small tags and cut ends) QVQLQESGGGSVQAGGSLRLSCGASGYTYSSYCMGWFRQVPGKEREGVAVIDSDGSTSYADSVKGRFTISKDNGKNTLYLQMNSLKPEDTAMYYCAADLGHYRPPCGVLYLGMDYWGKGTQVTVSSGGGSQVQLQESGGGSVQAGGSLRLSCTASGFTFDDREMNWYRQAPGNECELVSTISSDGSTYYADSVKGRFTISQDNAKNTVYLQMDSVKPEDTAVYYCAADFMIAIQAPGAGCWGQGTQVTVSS : what is it?
77700
